Please provide measured Tm for the entries that follow.
test: melting temperature; fluorescence melt of hairpins on a sequencing array, two-state fit, raised by 9.35 °C to match UV melts; settings: sodium 0.088 M

Query GATCAGGATGCTGATC ((((((....)))))) yields Tm of 50.3 °C

Query GGGGCTGGAAACAGTCCC (((.(((....))).))) yields Tm of 59.1 °C

Query GTGCTTGGAAACAAGCGC (.(((((....))))).) yields Tm of 61.3 °C

Query GCCTTGCGAAAGCCAAGC ((.(.((....)).).)) yields Tm of 39 °C

Query GAAACCGAAAGGTGTTC ((((((....))).))) yields Tm of 36.5 °C

Query GATCCAGCCCTGGATC ((((((....)))))) yields Tm of 54.1 °C

Query GGCCTGTCGAAAGACGCC (((..(((....)))))) yields Tm of 45.2 °C

Query GATCCCTGAGGGATC ((((((...)))))) yields Tm of 59.6 °C

Query GCAATCGGAAACGATTAC (.(((((....))))).) yields Tm of 38 °C

Query CGATCGCGGAAACGCTCG (((..(((....)))))) yields Tm of 36.8 °C

Query GTTGGAGGAAACTTCGAC ((.(.((....)).).)) yields Tm of 34.2 °C

Query GCCACCGAAAGGTGCGGC ((((((....)))..))) yields Tm of 60.8 °C

====

assay: melting temperature; fluorescence melt of hairpins on a sequencing array, two-state fit, raised by 9.35 °C to match UV melts; settings: sodium 0.088 M
Labelling: Tm reported below 50 °C becomes class 1; at or above becomes class 0.

Inquiry: Confirm or reject: Tm of GTGAACCCGAAAGGGCAC (((..(((....)))))) lies strictly below 50 °C
Reply text: class 1

Inquiry: Confirm or reject: Tm of GAGTGCGAAAGCACGCTC ((((((....)))..))) lies strictly below 50 °C
Reply text: class 0

Inquiry: Confirm or reject: Tm of GGTTTCCCGAAAGGGACC (((..(((....)))))) lies strictly below 50 °C
Reply text: class 1

Inquiry: Confirm or reject: Tm of GTGTTGGGAAACCGACAC ((((.((....)).)))) lies strictly below 50 °C
Reply text: class 0

Inquiry: Confirm or reject: Tm of GATCGATGTTTCGATC ((((((....)))))) lies strictly below 50 °C
Reply text: class 0

Inquiry: Confirm or reject: Tm of GGTCGCGGAAACGTGGCC ((.(.((....)).).)) lies strictly below 50 °C
Reply text: class 0

Inquiry: Confirm or reject: Tm of GCGTACATACGC ((((....)))) lies strictly below 50 °C
Reply text: class 0

Inquiry: Confirm or reject: Tm of GGGTTCGAAAGAATACCC ((((((....)))..))) lies strictly below 50 °C
Reply text: class 1

Inquiry: Confirm or reject: Tm of CCTAAGAAATTAGG (((((....))))) lies strictly below 50 °C
Reply text: class 1

Inquiry: Confirm or reject: Tm of GCGTAGCACGC ((((...)))) lies strictly below 50 °C
Reply text: class 0

Inquiry: Confirm or reject: Tm of GATCGCGAAAGCGATATC ((((((....)))..))) lies strictly below 50 °C
Reply text: class 0

====

assay: folding enthalpy; higher = less favourable; fluorescence melt of hairpins on a sequencing array, two-state fit; conditions: sodium 0.088 M
READOUT_NAME: folding enthalpy (kcal/mol)
State the answer as a number, implicitly in kcal/mol.

Query CGGACGGAAACGTTGCCG ((((((....)))..))) yields folding enthalpy of -15.7

Query GGGTATGGAAACGTACTC (.(((.(....).))).) yields folding enthalpy of -13.4

Query GGCCGACGAAAGTCTGCC (((.(((....))).))) yields folding enthalpy of -51.3

Query GCCATGCGAAAGCAGCGC ((..(((....)))..)) yields folding enthalpy of -17.2

Query GCGTAGCGAAAGCCTCGC (((..((....))..))) yields folding enthalpy of -10.8

Query GTAGATGGAAACACCTAC ((((.((....)).)))) yields folding enthalpy of -20.9

====

Please provide measured folding enthalpy for the entries that follow.
assay: folding enthalpy; higher = less favourable; fluorescence melt of hairpins on a sequencing array, two-state fit; conditions: sodium 0.088 M
State the answer as a number, implicitly in kcal/mol.

Query GCCATCGAAAGATGTGGC ((((((....)))..))) yields folding enthalpy of -23.4

Query CGGATACGGAAACGTCCG (((..(((....)))))) yields folding enthalpy of -18.6

Query GATCCCCATTGGGATC ((((((....)))))) yields folding enthalpy of -37.6

Query CGAACGGAAACGTATTCG ((((((....)))..))) yields folding enthalpy of -17.7

Query GGCTAAGGAAACTTAGTC (.(((((....))))).) yields folding enthalpy of -36.7

Query GATCCCGTCCGGGATC ((((((....)))))) yields folding enthalpy of -42

Query GGAAGCCGAAAGGCATCC (((.(((....))).))) yields folding enthalpy of -21.9

Query GAAACCGAAAGGTGTTC ((((((....))).))) yields folding enthalpy of -13

Query GATCGGGAACCGATC ((((((...)))))) yields folding enthalpy of -36

Query GAGTACGAAAGTAACTC ((((((....))).))) yields folding enthalpy of -23.4

Query GCAGTGACGAAAGTCTGC (((..(((....)))))) yields folding enthalpy of -23.8

Query GGACAGGAAACTGTCC ((((((....)))))) yields folding enthalpy of -43

====

Please provide measured Tm for the entries that follow.
assay: melting temperature; fluorescence melt of hairpins on a sequencing array, two-state fit, raised by 9.35 °C to match UV melts; conditions: sodium 0.088 M
State the answer as a number, implicitly in °C.

Query CCTACGAAAGTAGG (((((....))))) yields Tm of 57

Query GGGTGGGGAAACCCATCC ((.((((....)))).)) yields Tm of 54.2

Query GACCAGGAAACTGGTC ((((((....)))))) yields Tm of 63.4

Query GATCGTTGTACGATC ((((((...)))))) yields Tm of 61.1

Query GTATATGGAAACATGTAC (((.(((....))).))) yields Tm of 37.2

Query GGCCACGGAAACGCAGCC (((..((....))..))) yields Tm of 39.5

====

assay: melting temperature; fluorescence melt of hairpins on a sequencing array, two-state fit, raised by 9.35 °C to match UV melts; conditions: sodium 0.088 M
READOUT_NAME: Tm (°C)
State the answer as a number, implicitly in °C.

Query GATCCACCATTGGATC ((((((....)))))) yields Tm of 49.4

Query GCACACGGAAACGCATGC (((..((....))..))) yields Tm of 26.4

Query GATCCTATAGAGGATC ((((((....)))))) yields Tm of 50.4

Query GATCTCTCGTGAGATC ((((((....)))))) yields Tm of 52.5

Query GGAGGCCGAAAGGCTCC (((.(((....)))))) yields Tm of 57.2

Query GGTTGGTCGAAAGACACC (((..(((....)))))) yields Tm of 37

Query GATCTGGGAAACCAGATC (((((((....))))))) yields Tm of 58.5

Query GATCTTATCAAAGATC ((((((....)))))) yields Tm of 44.2

Query GTACTGCGAAAGCAATAC (((.(((....))).))) yields Tm of 37.4

Query CCGTAGAAATACGG (((((....))))) yields Tm of 47.3

Query GTACTCGAAAGAGGTTAC ((((((....)))..))) yields Tm of 26.6

Query GCCATGCGAAAGCAGCGC ((..(((....)))..)) yields Tm of 47

Query GCCAACACGAAAGTGGGC (((..(((....)))))) yields Tm of 52.7

Query GGAACTGGAAACGGTTTC (.(((.(....).))).) yields Tm of 30.4

Query GAACCGGGAAACCGGTCC (.(((((....))))).) yields Tm of 41.2

Query GGTTGTGGAAACGTAACC ((((..(....)..)))) yields Tm of 35.7

Query GAATCCGAAAGGATTC ((((((....)))))) yields Tm of 66.5

Query GCTATGCCGAAAGGCAGC (((..(((....)))))) yields Tm of 40.2

Query GAAACGGAAACGTTTC ((((((....)))))) yields Tm of 55.3

Query GCCATGGGAAACTGTGGC ((((..(....)..)))) yields Tm of 47.1

Query GGTCGAGGAAACCCGACC (((((.(....).))))) yields Tm of 54.1

Query GTGCAAGGAAACTTACAC (((.(((....))).))) yields Tm of 34.8

Query GATCTATGCATAGATC ((((((....)))))) yields Tm of 49.9

Query GTATGGGGAAACTCGTAC (((.(.(....).).))) yields Tm of 29.1

Query GTTCCCGAAAGGGATAAC ((((((....)))..))) yields Tm of 36.5

Query GGGTAGGGAAACTTGCCC (((.(.(....).).))) yields Tm of 35.6

Query GATCACGTGTGTGATC ((((((....)))))) yields Tm of 58.9

Query GCTCGCGGAAACACGAGC (((((.(....).))))) yields Tm of 55.2

Query GATCACAGAGGTGATC ((((((....)))))) yields Tm of 55.9

Query GCTGCGGGAAACCACAGC ((((.((....)).)))) yields Tm of 52.7

Query CGCACGGAAACGTTGCG ((((((....))).))) yields Tm of 55.1

Query GAAACTGGAAACAGTTTC (((((((....))))))) yields Tm of 56.9

Query GCATCCCGAAAGGGCTGC (((.(((....))).))) yields Tm of 56.2

Query GCTGGCGAAAGCCTAGC ((((((....))).))) yields Tm of 59.3

Query GATCCTGAGAAGGATC ((((((....)))))) yields Tm of 57.6

Query GACGAGCGAAAGCTAGTC (((.(((....))).))) yields Tm of 56.8

Query GTGTAGGCGAAAGCCCAC (((..(((....)))))) yields Tm of 44.5

Query GAGCACGAAAGTGGACTC ((((((....)))..))) yields Tm of 48.7

Query GATCCACGAAAGTGATC (((.(((....)))))) yields Tm of 41.3

Query GGAGGGGGAAACCCCCCC ((.((((....)))).)) yields Tm of 50.9

Query TTCGTGAAAACGAA (((((....))))) yields Tm of 46.4

Query GATCCGACTCGGATC ((((((...)))))) yields Tm of 55.7

Query GATCCGGGTACGGATC ((((((....)))))) yields Tm of 67.9

Query GCATGAGAAATCATGC ((((((....)))))) yields Tm of 56.4

Query GTGACCGAAAGGTTGCAC ((((((....)))..))) yields Tm of 42.2

Query GCTGACCCGAAAGGGAGC (((..(((....)))))) yields Tm of 41.8

Query GCGGATGGAAACATCTGC ((.((((....)))).)) yields Tm of 54.4

Query GGACGGCGAAAGCCATCC (((.(((....))).))) yields Tm of 50

Query GCGGCCGAAAGGCGACGC ((((((....)))..))) yields Tm of 65.9

Query GCGACAGGAAACTGCCAC (.(.(((....))).).) yields Tm of 20.6
